Target: D(2) dopamine receptor (Homo sapiens)
Sequence (P14416 whole entry): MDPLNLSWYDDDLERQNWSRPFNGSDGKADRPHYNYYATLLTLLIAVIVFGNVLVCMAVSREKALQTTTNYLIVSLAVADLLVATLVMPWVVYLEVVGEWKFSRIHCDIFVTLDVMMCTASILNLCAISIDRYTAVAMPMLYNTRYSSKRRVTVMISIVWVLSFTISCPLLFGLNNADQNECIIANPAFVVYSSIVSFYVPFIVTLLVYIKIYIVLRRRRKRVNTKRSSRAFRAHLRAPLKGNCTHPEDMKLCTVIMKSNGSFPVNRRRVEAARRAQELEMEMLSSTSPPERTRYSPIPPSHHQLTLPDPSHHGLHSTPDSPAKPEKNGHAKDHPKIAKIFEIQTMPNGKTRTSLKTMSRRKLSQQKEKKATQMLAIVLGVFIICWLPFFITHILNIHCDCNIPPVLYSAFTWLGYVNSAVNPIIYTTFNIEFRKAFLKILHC
Grouping by measured Ki is done with the following cut points: low class (below 30 nM), middle class (30 nM to below 200 nM), high class (200 nM or more)

Q. Which Ki band matches CSc1ccc(C2(O)CCN(Cc3c[nH]c4ccccc34)CC2)cc1 ?
A. low class

Q. Which bin, given its Ki, does COc1ccc2[nH]cc(CN3CCC(O)(c4ccc(SC)cc4)CC3)c2c1 occupy?
A. low class

Q. Sort Cc1[nH]c2ccccc2c1CN1CCC(O)(c2ccc(Cl)cc2)CC1 into one of the categories.
A. low class

Q. Looking at OC1(c2ccc(Cl)cc2)CCN(Cc2n[nH]c3ccccc23)CC1 , which class would you pick?
A. high class

Q. Using the reported Ki, which band applies to COC1(c2ccc(Cl)cc2)CCN(Cc2c[nH]c3ccccc23)CC1 ?
A. middle class

Q. Record OC1(c2ccc(Cl)cc2)CCN(Cc2cc3ccccc3[nH]2)CC1 — which class?
A. high class

Q. Which class holds NCC1(c2ccc(Cl)cc2)CCN(Cc2c[nH]c3ccccc23)CC1 ?
A. high class

Q. Could you tell me which band Oc1ccc(C2(O)CCN(Cc3c[nH]c4ccccc34)CC2)cc1 belongs to?
A. high class

Q. Please classify: OC1(c2cccc(Cl)c2Cl)CCN(Cc2c[nH]c3ccccc23)CC1
A. low class

Q. # bin label for OC1(c2ccc(Cl)c(Cl)c2)CCN(Cc2n[nH]c3ccccc23)CC1
A. high class

Q. Sort CC(=O)NCC1(c2ccc(Cl)cc2)CCN(Cc2c[nH]c3ccccc23)CC1 into one of the categories.
A. high class

Q. # classify by Ki band: NC1(c2ccc(Cl)cc2)CCN(Cc2c[nH]c3ccccc23)CC1
A. middle class

Q. Lab note: sort OC1(c2cccc(Cl)c2)CCN(Cc2c[nH]c3ccccc23)CC1 into the matching Ki band.
A. middle class

Q. Which class holds OC1(c2ccc(-c3ccccc3)cc2)CCN(Cc2c[nH]c3ccccc23)CC1 ?
A. middle class

Q. Just checking, what class would you give COC(=O)C1(c2ccc(Cl)cc2)CCN(Cc2c[nH]c3ccccc23)CC1 here?
A. middle class

Q. Category lookup for the compound CCOC(=O)C1(c2ccc(Cl)cc2)CCN(Cc2c[nH]c3ccccc23)CC1
A. middle class

Q. Could you tell me which band OC1(c2ccc(Cl)c(Cl)c2)CCN(Cc2c[nH]c3ccccc23)CC1 belongs to?
A. low class

Values were extracted from ChEMBL document CHEMBL1138415.
